The following compounds are shown together with reported pIC50 values.
Molecular target: DNA gyrase subunit A/DNA gyrase subunit B (Mycobacterium tuberculosis (strain ATCC 25618 / H37Rv), UniProt P9WG45+P9WG47)
Sequence (P9WG45 whole entry): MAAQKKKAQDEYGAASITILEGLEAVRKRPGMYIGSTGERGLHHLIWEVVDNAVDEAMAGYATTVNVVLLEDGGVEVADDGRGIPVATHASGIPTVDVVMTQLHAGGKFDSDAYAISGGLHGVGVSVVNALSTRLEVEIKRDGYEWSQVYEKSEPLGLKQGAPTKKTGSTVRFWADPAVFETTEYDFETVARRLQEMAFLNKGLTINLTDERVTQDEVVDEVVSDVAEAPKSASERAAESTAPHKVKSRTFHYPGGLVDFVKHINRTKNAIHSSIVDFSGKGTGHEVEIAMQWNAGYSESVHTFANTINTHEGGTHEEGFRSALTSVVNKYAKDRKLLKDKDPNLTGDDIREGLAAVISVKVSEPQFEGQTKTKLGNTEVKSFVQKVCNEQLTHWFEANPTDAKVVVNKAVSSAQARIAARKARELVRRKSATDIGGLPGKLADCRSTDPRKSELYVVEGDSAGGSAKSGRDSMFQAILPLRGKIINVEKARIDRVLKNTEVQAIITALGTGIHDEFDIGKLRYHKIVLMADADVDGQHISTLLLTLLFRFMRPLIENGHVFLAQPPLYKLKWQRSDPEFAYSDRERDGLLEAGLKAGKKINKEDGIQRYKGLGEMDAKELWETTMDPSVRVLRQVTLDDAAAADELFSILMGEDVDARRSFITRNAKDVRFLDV
Sequence (P9WG47 whole entry): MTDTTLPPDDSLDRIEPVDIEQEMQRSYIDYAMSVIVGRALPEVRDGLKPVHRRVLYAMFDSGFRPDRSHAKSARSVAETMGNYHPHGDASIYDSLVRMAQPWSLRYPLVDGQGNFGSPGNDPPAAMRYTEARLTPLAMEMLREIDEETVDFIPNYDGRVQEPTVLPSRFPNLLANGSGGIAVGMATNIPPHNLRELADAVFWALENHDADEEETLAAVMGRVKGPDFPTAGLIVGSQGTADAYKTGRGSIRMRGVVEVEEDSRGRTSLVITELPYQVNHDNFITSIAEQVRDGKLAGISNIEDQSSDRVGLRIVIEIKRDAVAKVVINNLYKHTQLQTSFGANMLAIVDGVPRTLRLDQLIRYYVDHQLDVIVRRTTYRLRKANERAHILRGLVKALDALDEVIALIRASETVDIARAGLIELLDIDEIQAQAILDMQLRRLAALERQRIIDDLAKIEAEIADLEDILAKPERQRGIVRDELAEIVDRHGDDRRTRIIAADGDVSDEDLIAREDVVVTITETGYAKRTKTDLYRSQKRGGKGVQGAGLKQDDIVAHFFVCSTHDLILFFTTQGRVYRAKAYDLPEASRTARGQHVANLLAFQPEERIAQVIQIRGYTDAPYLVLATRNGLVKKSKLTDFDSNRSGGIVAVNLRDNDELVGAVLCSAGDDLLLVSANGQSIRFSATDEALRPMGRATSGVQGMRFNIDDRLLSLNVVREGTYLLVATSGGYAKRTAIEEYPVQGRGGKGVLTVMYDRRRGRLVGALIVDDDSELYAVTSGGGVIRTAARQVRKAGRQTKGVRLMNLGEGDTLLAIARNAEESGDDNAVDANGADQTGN
Assay: Inhibition of Mycobacterium tuberculosis H37Rv DNA gyrase assessed as supercoiling of pBR322 DNA after 90 mins by agarose gel electrophoresis method
In plain terms, pIC50 is the concentration in mol/L turned into minus its base-10 logarithm.

smilesnotation=Cc1ncc(CNC2CCN(CCn3c(=O)ccc4ncc(F)cc43)CC2)cc1Cl numericvalue=6.60

Endpoint output: pIC50 of O=C1COc2ccc(CNC3CCN(CCn4c(=O)ccc5ccc(Oc6cccnc6)nc54)CC3)nc2N1 . Value?
6.98

* * *

Tested on: Caco-2
Test: Permeability across human Caco2 cells
Type: ADME, cell-based
measure: permeability

Worked cases, permeability given:
smilesnotation=NS(=O)(=O)c1ccc(Oc2cnc3ccc(=O)n(CCN4CCC(c5nc6cc(Cl)ccc6[nH]5)CC4)c3c2)cc1 result=impermeable
smilesnotation=O=C1COc2ccc(CNC3CCN(CCn4c(=O)ccc5ncc(Oc6ccon6)cc54)CC3)nc2N1 result=permeable
smilesnotation=NS(=O)(=O)c1ccc(Oc2ccc3ccc(=O)n(CCN4CCC(NCc5ccc6c(n5)NC(=O)CO6)CC4)c3n2)cc1 result=impermeable
smilesnotation=O=C1COc2ccc(CNC3CCN(CCn4c(=O)ccc5ncc(Oc6cccnc6)cc54)CC3)nc2N1 result=permeable
smilesnotation=O=C1COc2ccc(CN[C@@H]3CCN(CCn4c(=O)ccc5ncc(Oc6ccon6)cc54)C[C@@H]3F)nc2N1 result=permeable

Kindly review the next molecule as well.
Endpoint output: permeability of O=C1COc2ccc(CN[C@@H]3CCN(CCn4c(=O)ccc5ncc(Oc6cccnc6)cc54)C[C@@H]3F)nc2N1 . Value?
permeable

* * *

Molecular target: DNA gyrase subunit A/DNA gyrase subunit B (Mycobacterium tuberculosis (strain ATCC 25618 / H37Rv), UniProt P9WG45+P9WG47)
Assay: Inhibition of Mycobacterium tuberculosis H37Rv DNA gyrase assessed as supercoiling of pBR322 DNA after 90 mins by agarose gel electrophoresis method
The following compounds are shown together with reported pIC50 values.
In plain terms, pIC50 is the concentration in mol/L turned into minus its base-10 logarithm.

Worked cases, pIC50 given:
smilesnotation=O=C1COc2ccc(CN[C@@H]3CCN(CCn4c(=O)ccc5ncc(Oc6cccnc6)cc54)C[C@@H]3F)nc2N1 numericvalue=6.10
smilesnotation=O=C1COc2ccc(CNC3CCN(CCn4c(=O)ccc5ccc(Cl)nc54)CC3)nc2N1 numericvalue=6.96

Kindly review the next compound as well.
Endpoint output: pIC50 of O=C1COc2ccc(CNC3CCN(CCn4c(=O)ccc5ccc(Oc6cncnc6)nc54)CC3)nc2N1 . Value?
6.76
